assay: Tolerability in CD1 mice: body and organ weight (Example 25); format: in vivo; conditions: 50 mg/kg s.c. twice per week for 6 weeks, end of study
In the oligonucleotide strings, read from the 5' end, every base follows the letter of its sugar. An asterisk marks phosphorothioate; unmarked linkages are phosphodiester. Other units and linkages are bracketed, terminal groups are in braces. A string of capitals states the bases alone. e = 2'-O-(2-methoxyethyl) (MOE); [5mC] = 5-methylcytosine; d = 2'-deoxy (DNA)
readout type: Spleen weight as percentage of body weight (%)
Kindly provide the numeric value in % only, without the unit symbol.

Prompt: Item under review: ISIS 445503: microwalk gapmer of Table 51 (antisense eG*e[5mC]*eA*eT*eT*eG*dG*dT*dG*d[5mC]*dA*d[5mC]*dA*dG*eT*eT*eT*e[5mC]*eT*eG) . Reported Spleen weight as percentage of body weight?
Completion: 0.6

Prompt: Item under review: ISIS 445532: microwalk gapmer of Table 51 (antisense e[5mC]*eG*eG*e[5mC]*eA*dT*dT*dG*dG*dT*dG*d[5mC]*dA*e[5mC]*eA*eG*eT*eT) . Reported Spleen weight as percentage of body weight?
Completion: 0.4

Prompt: Item under review: ISIS 416850: gapmer of Table 8 (antisense eT*eG*e[5mC]*eA*e[5mC]*dA*dG*dT*dT*dT*d[5mC]*dT*dG*dG*d[5mC]*eA*eG*eG*e[5mC]*e[5mC]) . Reported Spleen weight as percentage of body weight?
Completion: 0.4

====

assay: Tolerability in Sprague-Dawley rats: kidney function (Example 19); format: in vivo; conditions: Sprague Dawley rats, before antisense oligonucleotide treatment
readout type: urine protein/creatinine ratio, Before
# print the numeric value only

Prompt: Item under review: 417003 (antisense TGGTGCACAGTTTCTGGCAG; 2-13-5 gapmer, wing sugar chemistry not given here, further chemistry not given here) [compound 417003] . Reported urine protein/creatinine ratio, Before?
Completion: 0.9

Prompt: Item under review: 416838 (antisense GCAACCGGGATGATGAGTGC; 5-10-5 gapmer, wing sugar chemistry not given here, further chemistry not given here) [compound 416838] . Reported urine protein/creatinine ratio, Before?
Completion: 1.2

Prompt: Item under review: 416892 (antisense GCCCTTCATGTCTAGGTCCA; 3-14-3 chimeric gapmer, wing sugar chemistry not given here, further chemistry not given here) [compound 416892] . Reported urine protein/creatinine ratio, Before?
Completion: 0.8

Prompt: Item under review: 416850 (antisense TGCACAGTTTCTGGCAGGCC; 5-10-5 gapmer, wing sugar chemistry not given here, further chemistry not given here) [compound 416850] . Reported urine protein/creatinine ratio, Before?
Completion: 1.0

Prompt: Item under review: 416825 (antisense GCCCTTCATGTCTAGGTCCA; 5-10-5 gapmer, wing sugar chemistry not given here, further chemistry not given here) [compound 416825] . Reported urine protein/creatinine ratio, Before?
Completion: 1.1

====

tested on: human Factor XI mRNA; assay: Dose-dependent inhibition in HepG2 cells, lipofectin (Example 5); type: cell-based; conditions: 37.5 nM, 16 hours
readout type: percent inhibition of human Factor XI mRNA, relative to untreated control cells (%)
Kindly provide the numeric value in % only, without the unit symbol.

Prompt: Item under review: 416825 (antisense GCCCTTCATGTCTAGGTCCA; 5-10-5 gapmer, wing sugar chemistry not given here, further chemistry not given here) [compound 416825] . Reported percent inhibition of human Factor XI mRNA, relative to untreated control cells?
Completion: 79

Prompt: Item under review: 417003 (antisense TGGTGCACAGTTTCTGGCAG; 2-13-5 gapmer, wing sugar chemistry not given here, further chemistry not given here) [compound 417003] . Reported percent inhibition of human Factor XI mRNA, relative to untreated control cells?
Completion: 73

Prompt: Item under review: 417002 (antisense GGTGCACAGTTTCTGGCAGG; 2-13-5 gapmer, wing sugar chemistry not given here, further chemistry not given here) [compound 417002] . Reported percent inhibition of human Factor XI mRNA, relative to untreated control cells?
Completion: 81

Prompt: Item under review: 416838 (antisense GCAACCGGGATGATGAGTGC; 5-10-5 gapmer, wing sugar chemistry not given here, further chemistry not given here) [compound 416838] . Reported percent inhibition of human Factor XI mRNA, relative to untreated control cells?
Completion: 74

Prompt: Item under review: 416864 (antisense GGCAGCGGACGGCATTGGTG; 5-10-5 gapmer, wing sugar chemistry not given here, further chemistry not given here) [compound 416864] . Reported percent inhibition of human Factor XI mRNA, relative to untreated control cells?
Completion: 68
